assay: yeast display, Sf9 membrane polyspecificity reagent, FACS + sequencing; frameworks hold sequencing errors
READOUT LABEL: polyreactivity (PSR sort gate)

// below: answered sequences
| SEQUENCE RECORD | polyreactivity (PSR sort gate) |
| --- | --- |
| QVQLVESGGGLVQAGGSLRLSCAASGSTYRNAMGWYRQAPGKERELVAAITKSDSSTYYADSVKGRFTISRDNAKNTVYLQMYSLKPEDTAVYYCNVDRAWPPWPYDYWGQGTQVTVSS | low polyreactivity |
| QVQLVESGGGLVQAGGSLRLSCAASGRIFAHNAMGWYRQPPGKARELVAAITWSGGSTYYADSVKGRFTISRDNAKKTVYLQMNSLNPEDTAVYYCNNDSHGHLYNYWGQGTQVCVSS | low polyreactivity |
| QVQLVESGGGLVQAGGSLRLSCAASGRTFFDNAMGWYRQAPGKEREFVAAISYNGGSTYFADSVKGRFTISRDNAKNTVYLQMNSLKPEDTAVYYCAADPNYGYDYWGQGTQVTVSS | low polyreactivity |
| QVQLVESGGGLVQAGGSLRLSCAASGSIFHGYTMGWYIQSPGKERELVAAISRRGDSTYYADSVKGRFTISRDNAKNTVYLQMNSLKPEDTAVYYCATVFYRTRYVPYGYWGQGTQVTVSS | low polyreactivity |

Here's the next entry for you.
Note to self: polyreactivity (PSR sort gate) recorded for QVQLVESGGGLVQAGGSLRISCAASVSTFWYYAMGWYIQAPRKERELVAPISRTGGGTYYADSVKGRFTISRDNAKNSVYLQMNSLKPEDTAVYYCARGSVYSDAQIYDYWGQGTQVTVSS was low polyreactivity
